Where these numbers come from: ChEMBL document CHEMBL1681713

Kindly supply the reported Activity values for the records listed here.
Test system: Kidney
Assay Remarks: Toxicity in mouse assessed as effect on calcium level in kidney per gram of organ at 0.4 mmol/kg, ip qd for 5 days
Type: organism-based
Condition Summary: in vivo, 120 h
// units = µg/g; emit number, no label

Field request: Activity | item: CC1(C)SC(C(=O)O)C(C(=O)N[C@@H](CO)C(=O)O)S1 (stereo partly drawn)
75.89

Field request: Activity | item: CC1(C)SC(C(=O)O)C(C(=O)N[C@@H](CCC(N)=O)C(=O)O)S1 (stereo partly drawn)
76.93

Field request: Activity | item: CC(C)[C@H](NC(=O)C1SC(C)(C)SC1C(=O)O)C(=O)O (stereo partly drawn)
76.97

Field request: Activity | item: CC[C@H](C)[C@H](NC(=O)C1SC(C)(C)SC1C(=O)O)C(=O)O (stereo partly drawn)
75.99

Field request: Activity | item: CC(C)C[C@H](NC(=O)C1SC(C)(C)SC1C(=O)O)C(=O)O (stereo partly drawn)
76.48

Field request: Activity | item: CC1(C)SC(C(=O)O)C(C(=O)N[C@@H](Cc2ccccc2)C(=O)O)S1 (stereo partly drawn)
76.76

Field request: Activity | item: CSCC[C@H](NC(=O)C1SC(C)(C)SC1C(=O)O)C(=O)O (stereo partly drawn)
77.39

Field request: Activity | item: CC1(C)SC(C(=O)O)C(C(=O)N[C@@H](Cc2c[nH]c3ccccc23)C(=O)O)S1 (stereo partly drawn)
76.92

Field request: Activity | item: CC1(C)SC(C(=O)O)C(C(=O)N[C@@H](CC(N)=O)C(=O)O)S1 (stereo partly drawn)
76.36

Field request: Activity | item: CC1(C)SC(C(=O)O)C(C(=O)NCC(=O)O)S1 (stereo not drawn)
76.17

Field request: Activity | item: CC1(C)SC(C(=O)O)C(C(=O)N[C@@H](CCC(=O)O)C(=O)O)S1 (stereo partly drawn)
77.45

Field request: Activity | item: CC1(C)SC(C(=O)O)C(C(=O)N[C@@H](CC(=O)O)C(=O)O)S1 (stereo partly drawn)
76.47

Field request: Activity | item: CC1(C)SC(C(=O)O)C(C(=O)O)S1 (stereo not drawn)
75.94
